- METHOD NOTES: folding stability dG unfold from trypsin proteolysis; higher = more stable
QUANTITY: folding stability dG unfold
State the value with its unit after it.

Give its folding stability dG unfold value. Item: SAGSMPVESTSERKLEKDGVATVTTTSYPDASPGGTDTVTVTLHPGESESATTTYTQPPGAPPLTVSLESAG [r5_47_JUSTAS]
-1.05 kcal/mol

Please answer likewise for SAGGSAGGSIEIPGGYTIPSSLSEEEAKEAAKKLFLEKNPELGVKEVEVKVETKNGKKTITVVKSAGGSAGG [r6_558_JUSTAS]
0.641 kcal/mol

Please answer likewise for SAGGSAGGSASLSPEKKVTIKTTVPQPTPPAVTTTLTGQFPSSLTLEELAEKDPNATVSITGSAGGSAGGSA [r18_279_JUSTAS]
0.221 kcal/mol

Please answer likewise for SAGGSAIDPRLLKLPKVKVEILSVEPVTGEDDKPFFVAKVKTDLEPGFYAYIILDPETGKIVKVFDSAGGSA [r15_66_TrMRF]
1.19 kcal/mol

###

- METHOD NOTES: folding stability dG unfold (combined trypsin and chymotrypsin); higher = more stable
QUANTITY: folding stability dG unfold (kcal/mol)
Enter your answer as a number in kcal/mol; do not include the unit.

Give its folding stability dG unfold value. Item: SGVLVVTHPDGSVSTVPFTHPDGLVVDISAGVDAPLYATVVRLLPDGTPEPLPVFEFDSIEDVLEALAEASA [r9_942_TrMRF]
1.61

Please answer likewise for SAGKIKIEVVKREDGYVVVKIRFEDTGEELVITVPKEDEEKVKELAEELAEKLKEEGIEVEVEVRELPPSAG [r5_815_TrROS_Hall]
2.86

Please answer likewise for SAGGSAGGSAGGMTKISVNIVIYDPKNNTTKIIPITMSESEIKKVKEELVPKNMSAKILSAGGSAGGSAGGS [r10_397_JUSTAS]
0.191

Please answer likewise for STLPPGATRTFEFTDPATGKKITVTLTRLPDGTVRVTLTTTDPATGKTTTETFTLPGETLEALLALVEESSA [r9_618_JUSTAS]
4.68

Please answer likewise for SAGGDPGWVRVTAEIELDGKNLKIEWWYMPNGNYYYNIEFPNGKEIEIMIPMEPGDVEEFAEYIAKKLSAGG [r13_296_TrROS]
2.66

###

- METHOD NOTES: folding stability dG unfold from chymotrypsin proteolysis; higher = more stable
Rule: folding stability dG unfold under 2 kcal/mol gives not met, otherwise met.

State whether the measured folding stability dG unfold reaches 2 kcal/mol, counting equality as reaching it, for SAGMITRTITTVDPVDPALVAAISPDLVFPDGSTVSRDGDRLVITTPVTLALPPSPDPAGQLVLPTAASAGG [r19_148_JUSTAS]
not met

Please answer likewise for SAGGSAGGSAGIKIEWEQMPGGYMQYKVTIPDPNGKPLKIDVHYKSPEDAEEKAKELLKSSAGGSAGGSAGG [r11_819_TrROS]
not met

Please answer likewise for SLSPSTPISSEEEAKEAAEKLAEEVREELGEDLPIVVDIERKELEDGTIVVKFTFYVPETGEKLLEVEVGSA [r9_794_JUSTAS]
not met

Please answer likewise for SAGGGELYIMFKFDFTFWINNGTISFDMYIMIRIPIPPPPVPIELEDDPDGSYKYEYPNGKEHEVPNSAGGS [r16_136_TrROS]
met

Please answer likewise for SAGGSAEVYKVKIKIERVLPNGEKVEEEITIEVEGMSEEELLALARELAAEPGVRIKEIEIEKLPPSAGGSA [r15_550_TrROS_Hall]
met

Please answer likewise for SAGGSAGGSAEVPKPGEAKPVLVTSSFTIPLPNGGTLEITTVDLVDVATGTVTPRVEVRSLDSAGGSAGGSA [r18_123_TrMRF]
not met

Please answer likewise for SAGGSAGGSAGNYMVRLEIEMPENGRKVEWMVPEDDPEEILEKFPWLKEHGMEVKIEVFPSAGGSAGGSAGG [r17_176_TrROS]
not met

Please answer likewise for SAGGSVVTGVDEEELRAVAEALRAAGHTLADVRIERYPEDGTYRMTVTLVDPATAAPLADVLMVAKASAGGS [r16_750_JUSTAS]
not met

Please answer likewise for SAGGSAIKLPSGVKIEFKKTEDGKYIVRVTLPDGKPIELEFEGDPEGPNNITPEEINDAILEKIKSSAGGSA [r15_780_TrMRF]
met

Please answer likewise for SAGGSAGGSAGGGPPLPLRVEREEKVEKTPDDRVLIKRKVTVELPDRPLSEEESIEILLESAGGSAGGSAGG [r7_293_JUSTAS]
not met

Please answer likewise for SAMKTYTLPNATITVETLPGDNTIVVTVTDPESGKTTTTTVSLDDPSLTIENIIARIEEQIKAGKPVSLSAG [r14_157_JUSTAS]
met

Please answer likewise for SAGGSAGGGPKVTVEVTESKVYELEDGSYVAVNTYTVTFEAEGKTVKVTFYRTFPKGFAGGPFSSAGGSAGG [r6_799_TrMRF]
met

Please answer likewise for GHRIKVNTVHTPSGTFSLTATVRYPDGTTVTYSFNLPSSPNDTFSVSVPESVPLTTVTTSTFQGDTETPTSS [r1_70_JUSTAS]
not met

Please answer likewise for SAGGMKINPKVFGNYVLVEVENPETGSRILKLVEFNPGPKTATVKVFYIDPNGKPTLLEEKTFSLPDLSAGG [r13_768_TrMRF]
met

Please answer likewise for SAGSLEKVTESSTSSDKVEVTTTTLTPLSNPSVPVQYVKTTTTTTLIDPATGKTLSTTTTTTTTPLPAASAG [r5_300_JUSTAS]
not met

Please answer likewise for SAGGSWRVSVQFPDGKKIKIPEEPIQKIIQEYGIPPDPGDPERMVERIANRIADKYGYPVKNIEIDSAGGSA [r2_83_TrROS]
not met

###

- METHOD NOTES: folding stability dG unfold from trypsin proteolysis; higher = more stable
QUANTITY: folding stability dG unfold (kJ/mol)
Enter your answer as a number in kJ/mol; do not include the unit.

Give its folding stability dG unfold value. Item: SAGGSAGGGSLSKPKKYELVATFTFPGTVEEAKEFLEKLLPEDWKVEIEETPDFLKIKLYKRLDSAGGSAGG [r6_952_TrMRF]
17

Please answer likewise for SAGGKTIYFPISEARNFLKEAIDNGLDNIRIEVFNGDKPREIDIPPGNLDDLIDNIPPNSWVQIEPKSAGGS [r16_636_TrROS]
-2.7

Please answer likewise for SAGGSASMGVSVAAIAEALDAARPAGAPPLVYVKLPNGEVVRVSPDESLTSISPEGEVEIEIRFLPSAGGSA [r15_50_JUSTAS]
3.79

Please answer likewise for SAGMIEITVEVPAEDMTEEELKELAEELARALREAGLPEDVKIVDVRVERLPDGTVRVTIKIEVKPPPSAGG [r19_87_TrROS_Hall]
17.7

Please answer likewise for SAGGSAGGSAGGIKKGDKIKIVKVKVEKRYDKDGKLVEERIVSIEEEEIEVPSLEDLLKASAGGSAGGSAGG [r7_439_TrROS_Hall]
3.06

Please answer likewise for SMSEKVEIDPAAIAEALKAGTEYEFDIKVTVTLFDPSNGKKVSTEEKVVKVKLKIPPPSPLPDPKNGYLLSA [r9_396_JUSTAS]
4.66

Please answer likewise for SAGGSAGGSAGMKVVVTLPDRTVTIPVNGTLDEAKEAVIKRAEELFGKPIPIEEITMSGESAGGSAGGSAGG [r11_1028_JUSTAS]
2.83

Please answer likewise for SAGGSAGGSMTTTVERSPSGKTTVTETETRKDAAGNEYTLVTTTTFDPNTTTSTTTTTVVPVSSAGGSAGGS [r12_57_JUSTAS]
4.5

Please answer likewise for SAGGMKPGAPVEIEFPIPGIPPGRRFRIMIHYPNGKHVEAEYTDNTIKIEIPVPDGDNIHHIYIYFYSAGGS [r16_179_TrROS]
13.7

Please answer likewise for SPAVRPLSAEFYDPRYTVEAPVYESEEGEPVLNIRFLVPEYELEIPFPLEDPEAVFESFAEDGVSLTLTDSA [r9_384_TrMRF]
0.0841

###

- METHOD NOTES: folding stability dG unfold from chymotrypsin proteolysis; higher = more stable
QUANTITY: folding stability dG unfold (kcal/mol)
Enter your answer as a number in kcal/mol; do not include the unit.

Give its folding stability dG unfold value. Item: SAGGSAGGSAPPLKILRPEATVHPDGGVTVVAELEGGYLVVETVTFDPETGTASSSVEIVPLDSAGGSAGGS [r20_15_TrMRF]
1.03

Please answer likewise for SAGGMYILELTFTTPTSTTPRTVEVPPGNYEEAAKALREELAAEAGAADLEVTFTVYKVAPDGTLVEESAGG [r13_877_JUSTAS]
2.51

Please answer likewise for KTKTIVINAKDLTEEQLRELLKKLGVSEEDVEVSEDGKTVVIKIDGVTIVIVASPPKPVVKPDDPEAKKAAS [r1_57_TrROS_Hall]
1.75

Please answer likewise for SAGGSAKITIKPGETITITIKLENGETVEIRMRVEELPDGTYKITMEITYPDGSKIEMELTLKIKPSAGGSA [r15_476_TrROS_Hall]
4.43

Please answer likewise for SAGGSAGGSAGGMKITKVEVFERPDGYLVVKMEIELTNENGEKVKLELVFVFKPGEVIESAGGSAGGSAGGS [r10_1183_TrROS_Hall]
4.96

Please answer likewise for SAGGSAGGSPETVTLTLTVTVKTVTLDPETGELTTTTHTVTLTLTLSKEDLEALLKSPELKKLSAGGSAGGS [r12_1015_TrROS_Hall]
3.09

Please answer likewise for SAGGMTIKPGETVEIEVGGKKITLTRNENGELTITIEDEETGETLTITVPKDTTLEEVLKKIEELLKSAGGS [r8_158_TrROS_Hall]
3.45

Please answer likewise for SAGMKPGDMRPVEIPFEIYQYDDGGPKPVAPMTIKIMVNPDEGYVMLEIENPGNGEPVIIFTLPADDISAGG [r19_413_TrROS]
2.42

Please answer likewise for SAGGSQLDEYRKKVEEAIEKAKAEGKPVEKIELTGSEEVAKEVREWLEEQGIPKSVKVTVTPPAINESAGGS [r16_164_JUSTAS]
1.13
